Please go through the items and note down their solubility at 18 h.
Test: Comparative solubility test in various solvents
Type: physicochemical
Settings: organic solvent or mixture, thermodynamic from solid; Cyclohexanone, 1 mM concentration, 23° C., stirred 18 h, visually inspected; read-out: Solubility in cyclohexanone

Compound: CCCCCC1CCC(c2ccc(OCCCCCCCCCCCP(=O)(O)O)c(F)c2F)CC1 (centres unmarked) [Reference 1, reference compound]
solubility at 18 h: < 1000 µM

Please find the next compound below.
Lab book: solubility at 18 h of CCCCC[C@H]1CC[C@H](c2ccc(Oc3c(C)cc(P(=O)(O)O)cc3C)c(F)c2F)CC1 [Synthesis Example 1] noted as > 1000 µM

Reference source: patent US12193328B2
